Target: T1, extracellular domain (ECD) of recombinant human Sortilin with a C-terminal HIS tag (ECD-huSortilin-HIS) (human, UniProt Q99523 78-755)
T1 construct: Bought (R&D Systems); also called human sortilin-ECD
T1 sequence: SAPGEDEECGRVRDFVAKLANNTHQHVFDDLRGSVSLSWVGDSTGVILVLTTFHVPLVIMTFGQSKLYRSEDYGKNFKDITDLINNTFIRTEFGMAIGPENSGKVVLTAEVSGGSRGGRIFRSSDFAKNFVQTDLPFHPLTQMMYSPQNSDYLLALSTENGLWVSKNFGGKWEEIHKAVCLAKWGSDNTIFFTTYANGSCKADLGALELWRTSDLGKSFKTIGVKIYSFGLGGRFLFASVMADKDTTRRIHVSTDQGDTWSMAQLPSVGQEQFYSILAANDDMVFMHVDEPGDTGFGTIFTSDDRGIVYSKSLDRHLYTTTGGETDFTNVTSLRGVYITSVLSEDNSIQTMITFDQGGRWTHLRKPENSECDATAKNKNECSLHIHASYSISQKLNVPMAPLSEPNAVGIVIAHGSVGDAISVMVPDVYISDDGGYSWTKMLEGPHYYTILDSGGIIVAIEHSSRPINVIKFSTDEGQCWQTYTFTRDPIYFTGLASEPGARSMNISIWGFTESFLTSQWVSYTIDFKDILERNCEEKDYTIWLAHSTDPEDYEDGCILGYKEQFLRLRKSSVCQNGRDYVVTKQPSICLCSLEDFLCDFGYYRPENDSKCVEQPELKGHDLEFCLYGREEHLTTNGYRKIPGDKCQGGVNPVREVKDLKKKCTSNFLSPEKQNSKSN
Assay: SPR (Biacore T200), mAb captured on anti-mouse chip, sortilin as analyte, global 1:1 fit

>  <BINDER>
mouse monoclonal antibody 8H24 (antibody, V domains shown, also called murine 8H24; m8H24) VH: QAYLQQSGTELVRPGASVKMSCKASGYTFTSYSMHWVKQTPRQGLEWIGAIYPGNDATSYNQKFKGKATLTVDKSSSTAYMQLSSLTSEDSAVYFCAREGYYGSSFEAWFASWGQGTLVTVSA VL: DVLMTQTPLSLPVSLGDQASISCRSSQSIVHSNGNTYLEWYLQKPGQSPKLLIYKVSNRFSGVPDRFSGSGSGTDFTLKISRVEAEDLGVYYCFQGSHVLPTFGGGTKLEIK

>  <kon [M⁻¹ s⁻¹]>
96600

$$$$
